subjectOfTest: human AspH (His6-AspH315–758) (Homo sapiens)
Construct: N-Terminally His6-tagged human AspH315–758 (His6-AspH315–758) was produced in Escherichia coli BL21 (DE3) cells; made in house; host or cells: Escherichia coli BL21 (DE3), pET-28a(+) vector
Sequence (Q12797 315-758): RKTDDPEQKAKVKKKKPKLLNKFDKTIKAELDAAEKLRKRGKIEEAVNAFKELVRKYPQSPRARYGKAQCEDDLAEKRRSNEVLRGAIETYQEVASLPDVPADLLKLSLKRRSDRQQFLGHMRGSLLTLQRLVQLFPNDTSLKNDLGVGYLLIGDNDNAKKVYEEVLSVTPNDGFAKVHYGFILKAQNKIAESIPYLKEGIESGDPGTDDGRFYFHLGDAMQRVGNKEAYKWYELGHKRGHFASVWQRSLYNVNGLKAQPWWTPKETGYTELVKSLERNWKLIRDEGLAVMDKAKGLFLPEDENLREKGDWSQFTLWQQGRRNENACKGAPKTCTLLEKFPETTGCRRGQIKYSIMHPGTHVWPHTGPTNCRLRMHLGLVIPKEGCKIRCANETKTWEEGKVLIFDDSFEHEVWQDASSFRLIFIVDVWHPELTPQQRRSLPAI
assay: SPE-MS AspH inhibition assay (hFX-CP101-119 substrate hydroxylation)
Assay type: biochemical
details: AspH-inhibitor screening, 384-well Plate 1, substrate conversion
Where a name gives a salt, the structure may show the parent alone.
resultType: Plate 1 (% conversion) (%)

[[record]]
compound = "CNCc1ccc(-c2[nH]c3cc(F)cc4c3c2CCNC4=O)cc1 [AG-014699_Rucaparib]"
resulttype = "Plate 1 (% conversion)"
unitlabel = "%"
val = 41.89

[[record]]
compound = "COc1cc([C@@H]2c3cc4c(cc3[C@@H](O[C@@H]3O[C@@H]5CO[C@@H](c6cccs6)O[C@H]5[C@H](O)[C@H]3O)[C@H]3COC(=O)[C@H]23)OCO4)cc(OC)c1O [Teniposide]"
resulttype = "Plate 1 (% conversion)"
unitlabel = "%"
val = 44.71

[[record]]
compound = "O=C(NC[C@H](O)CO)c1ccncc1Nc1ccc(I)cc1F [AS703026_Pimasertib]"
resulttype = "Plate 1 (% conversion)"
unitlabel = "%"
val = 44.21

[[record]]
compound = "Cc1cc(Nc2nc(N[C@@H](C)c3ncc(F)cn3)ncc2Cl)n[nH]1 [AZD1480]"
resulttype = "Plate 1 (% conversion)"
unitlabel = "%"
val = 49.81

[[record]]
compound = "COC(=O)C[C@](O)(CCCC(C)(C)O)C(=O)O[C@@H]1C(OC)=C[C@]23CCCN2CCc2cc4c(cc2[C@H]13)OCO4 [Homoharringtonine]"
resulttype = "Plate 1 (% conversion)"
unitlabel = "%"
val = 46.98

[[record]]
compound = "CNC(=O)c1ccc(N2C(=S)N(c3ccc(C#N)c(C(F)(F)F)c3)C(=O)C23CCC3)cc1F [RD162]"
resulttype = "Plate 1 (% conversion)"
unitlabel = "%"
val = 50.27

[[record]]
compound = "C[C@@H]1C[C@H]2[C@@H]3CCC4=CC(=O)C=C[C@]4(C)[C@@]3(F)[C@@H](O)C[C@]2(C)[C@@]1(O)C(=O)CO [Dexamethasone (Decadron)]"
resulttype = "Plate 1 (% conversion)"
unitlabel = "%"
val = 49.48

[[record]]
compound = "S=c1[nH]cnc2nc[nH]c12 [Mercaptopurine]"
resulttype = "Plate 1 (% conversion)"
unitlabel = "%"
val = 46.33

[[record]]
compound = "CCN(CC)CCCC(C)Nc1c2ccc(Cl)cc2nc2ccc(OC)cc12 (stereo not drawn) [Quinacrine HCl]"
resulttype = "Plate 1 (% conversion)"
unitlabel = "%"
val = 44.50

[[record]]
compound = "NS(=O)(=O)OC[C@@H]1C[C@@H](n2ccc3c(N[C@H]4CCc5ccccc54)ncnc32)C[C@@H]1O [MLN4924]"
resulttype = "Plate 1 (% conversion)"
unitlabel = "%"
val = 48.65

[[record]]
compound = "Cn1nnc2c(C(N)=O)ncn2c1=O [Temozolomide]"
resulttype = "Plate 1 (% conversion)"
unitlabel = "%"
val = 47.38

[[record]]
compound = "COC(=O)C[C@](O)(CCCC(C)(C)O)C(=O)O[C@@H]1C(OC)=C[C@]23CCCN2CCc2cc4c(cc2[C@H]13)OCO4 [Omacetaxine mepesuccinate]"
resulttype = "Plate 1 (% conversion)"
unitlabel = "%"
val = 50.31

[[record]]
compound = "FC(F)c1nc2ccccc2n1-c1nc(N2CCOCC2)nc(N2CCOCC2)n1 [ZSTK474]"
resulttype = "Plate 1 (% conversion)"
unitlabel = "%"
val = 50.29

[[record]]
compound = "COc1cc(O)c2c(c1)/C=C/C[C@H](O)[C@H](O)C(=O)/C=C\\C[C@H](C)OC2=O [(5Z)-7-Oxozeaenol]"
resulttype = "Plate 1 (% conversion)"
unitlabel = "%"
val = 39.88

[[record]]
compound = "O=C(Nc1cccnc1)N1CCC(Cc2cccc(Oc3ccc(C(F)(F)F)cn3)c2)CC1 [PF-3845]"
resulttype = "Plate 1 (% conversion)"
unitlabel = "%"
val = 47.15

[[record]]
compound = "CNC(=O)c1cc(Oc2ccc(NC(=O)Nc3ccc(Cl)c(C(F)(F)F)c3)cc2)ccn1 [Sorafenib]"
resulttype = "Plate 1 (% conversion)"
unitlabel = "%"
val = 26.23

[[record]]
compound = "Nc1ncn([C@@H]2O[C@H](CO)[C@@H](O)[C@H]2O)c(=O)n1 [Azacitidine]"
resulttype = "Plate 1 (% conversion)"
unitlabel = "%"
val = 41.61

[[record]]
compound = "N#Cc1ccc(C(c2ccc(C#N)cc2)n2cncn2)cc1 [Letrozole]"
resulttype = "Plate 1 (% conversion)"
unitlabel = "%"
val = 46.59

[[record]]
compound = "Oc1ccc2c(c1)CC[C@H](c1ccccc1)[C@@H]2c1ccc(OCCN2CCCC2)cc1 [Lasofoxifene]"
resulttype = "Plate 1 (% conversion)"
unitlabel = "%"
val = 47.69

[[record]]
compound = "CC(=O)OC[C@H]1O[C@@H](n2ccc(=O)[nH]c2=O)[C@H](OC(C)=O)[C@@H]1OC(C)=O [Uridine triacetate]"
resulttype = "Plate 1 (% conversion)"
unitlabel = "%"
val = 47.88

[[record]]
compound = "CN(c1ccccc1CNc1nc(Nc2ccc3c(c2)CC(=O)N3)ncc1C(F)(F)F)S(C)(=O)=O [PF 431396]"
resulttype = "Plate 1 (% conversion)"
unitlabel = "%"
val = 48.87

[[record]]
compound = "Nc1ccccc1NC(=O)c1ccc(CNc2nccc(-c3cccnc3)n2)cc1 [MGCD0103_Mocetinostat]"
resulttype = "Plate 1 (% conversion)"
unitlabel = "%"
val = 47.69

[[record]]
compound = "C#CCC(Cc1cnc2nc(N)nc(N)c2n1)c1ccc(C(=O)N[C@@H](CCC(=O)O)C(=O)O)cc1 (stereo partly drawn) [Pralatrexate]"
resulttype = "Plate 1 (% conversion)"
unitlabel = "%"
val = 43.39

[[record]]
compound = "N[C@@H](Cc1ccc(N(CCCl)CCCl)cc1)C(=O)O [Melphalan]"
resulttype = "Plate 1 (% conversion)"
unitlabel = "%"
val = 45.40

[[record]]
compound = "CNC(=O)c1ccc(N2C(=S)N(c3ccc(C#N)c(C(F)(F)F)c3)C(=O)C2(C)C)cc1F [Enzalutamide]"
resulttype = "Plate 1 (% conversion)"
unitlabel = "%"
val = 50.95

[[record]]
compound = "C[C@]12CC[C@H](O)CC1=CC[C@@H]1[C@@H]2CC[C@]2(C)C(c3cccnc3)=CC[C@@H]12 [Abiraterone]"
resulttype = "Plate 1 (% conversion)"
unitlabel = "%"
val = 48.92

[[record]]
compound = "NC(=O)c1ccc(I)c([N+](=O)[O-])c1 [Iniparib (BSI-201, IND-71677)]"
resulttype = "Plate 1 (% conversion)"
unitlabel = "%"
val = 46.83

